molecular target: UBE2K; test: reporter assay of Huesken 2005; details: siRNA; further: test concentration or dose not given here
Oligonucleotides are given in HELM: sugar(base)linkage, 5' to 3'; d 2'-deoxyribose, r ribose, m 2'-O-methylribose, p phosphate. ss, as = sense and antisense strand
quantityKind: normalised inhibition (eCFP-eYFP dual reporter) (%)
One number for each entry, in %.

Worked examples follow.
RNA1{r(C)p.r(A)p.r(G)p.r(A)p.r(G)p.r(C)p.r(C)p.r(A)p.r(G)p.r(A)p.r(U)p.r(G)p.r(A)p.r(U)p.r(C)p.r(C)p.r(A)p.r(C)p.r(A)p.d(T)p.d(T)}|RNA2{r(U)p.r(G)p.r(U)p.r(G)p.r(G)p.r(A)p.r(U)p.r(C)p.r(A)p.r(U)p.r(C)p.r(U)p.r(G)p.r(G)p.r(C)p.r(U)p.r(C)p.r(U)p.r(G)p.d(C)p.d(A)}$$$RNA1{StrandType:ss}|RNA2{StrandType:as}$    82.5
RNA1{r(A)p.r(U)p.r(C)p.r(U)p.r(U)p.r(G)p.r(U)p.r(A)p.r(G)p.r(A)p.r(U)p.r(G)p.r(A)p.r(G)p.r(A)p.r(A)p.r(U)p.r(U)p.r(U)p.d(T)p.d(T)}|RNA2{r(A)p.r(A)p.r(A)p.r(U)p.r(U)p.r(C)p.r(U)p.r(C)p.r(A)p.r(U)p.r(C)p.r(U)p.r(A)p.r(C)p.r(A)p.r(A)p.r(G)p.r(A)p.r(U)p.d(C)p.d(T)}$$$RNA1{StrandType:ss}|RNA2{StrandType:as}$    81.3
RNA1{r(A)p.r(U)p.r(U)p.r(G)p.r(G)p.r(C)p.r(A)p.r(G)p.r(C)p.r(U)p.r(G)p.r(C)p.r(A)p.r(G)p.r(A)p.r(G)p.r(C)p.r(C)p.r(A)p.d(T)p.d(T)}|RNA2{r(U)p.r(G)p.r(G)p.r(C)p.r(U)p.r(C)p.r(U)p.r(G)p.r(C)p.r(A)p.r(G)p.r(C)p.r(U)p.r(G)p.r(C)p.r(C)p.r(A)p.r(A)p.r(U)p.d(A)p.d(G)}$$$RNA1{StrandType:ss}|RNA2{StrandType:as}$    85
RNA1{r(C)p.r(U)p.r(U)p.r(G)p.r(U)p.r(A)p.r(G)p.r(A)p.r(U)p.r(G)p.r(A)p.r(G)p.r(A)p.r(A)p.r(U)p.r(U)p.r(U)p.r(U)p.r(A)p.d(T)p.d(T)}|RNA2{r(U)p.r(A)p.r(A)p.r(A)p.r(A)p.r(U)p.r(U)p.r(C)p.r(U)p.r(C)p.r(A)p.r(U)p.r(C)p.r(U)p.r(A)p.r(C)p.r(A)p.r(A)p.r(G)p.d(A)p.d(T)}$$$RNA1{StrandType:ss}|RNA2{StrandType:as}$    91.3

Request: Requested field: normalised inhibition (eCFP-eYFP dual reporter). Item: "RNA1{r(G)p.r(A)p.r(G)p.r(G)p.r(A)p.r(A)p.r(G)p.r(A)p.r(U)p.r(A)p.r(C)p.r(C)p.r(A)p.r(A)p.r(C)p.r(U)p.r(A)p.r(G)p.r(A)p.d(T)p.d(T)}|RNA2{r(U)p.r(C)p.r(U)p.r(A)p.r(G)p.r(U)p.r(U)p.r(G)p.r(G)p.r(U)p.r(A)p.r(U)p.r(C)p.r(U)p.r(U)p.r(C)p.r(C)p.r(U)p.r(C)p.d(C)p.d(T)}$$$RNA1{StrandType:ss}|RNA2{StrandType:as}$"
Response: 79.3

Origin of measurements: the OligoGym collection
